biological target: rat histamine H3 receptors (Rattus norvegicus, UniProt Q9QYN8)
Sequence (Q9QYN8 whole entry): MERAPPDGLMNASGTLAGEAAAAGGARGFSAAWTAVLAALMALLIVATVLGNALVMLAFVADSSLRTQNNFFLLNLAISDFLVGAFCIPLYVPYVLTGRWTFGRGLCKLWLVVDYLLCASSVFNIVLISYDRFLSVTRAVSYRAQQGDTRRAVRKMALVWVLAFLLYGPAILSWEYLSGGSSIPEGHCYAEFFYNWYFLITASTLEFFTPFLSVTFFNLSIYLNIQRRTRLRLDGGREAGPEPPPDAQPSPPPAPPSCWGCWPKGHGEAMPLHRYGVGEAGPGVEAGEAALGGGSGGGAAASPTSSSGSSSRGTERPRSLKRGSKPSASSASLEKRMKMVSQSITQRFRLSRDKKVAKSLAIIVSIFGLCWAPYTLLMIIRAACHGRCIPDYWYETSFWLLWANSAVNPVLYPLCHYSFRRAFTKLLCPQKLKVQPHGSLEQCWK
Entries annotated with measured Ki
# output: bare number, implied unit nM

Solved entries:
{"molecule": "CN(C)[C@H]1CCN(Cc2ccc(C3CCNCC3)cc2)C1 [Example 47]", "Ki [nM]": 33}
{"molecule": "CC(=O)Nc1cccc(-c2ccc(CN3CC[C@@H](N(C)C)C3)cc2)c1 [Example 45]", "Ki [nM]": 75}
{"molecule": "CC(=O)Nc1cccc(-c2ccc(CN3CC[C@H](N(C)C)C3)cc2)c1 [Example 44]", "Ki [nM]": 139}

--- query ---
Incoming: I'm curious: which Ki was measured for CN(C)[C@@H]1CCN(Cc2ccc(C3CCNCC3)cc2)C1 [Example 46] tested on rat histamine H3 receptors (Rattus norvegicus, UniProt Q9QYN8)?
Outgoing: 136
